test system: A549/ATCC NSCLC; experiment: NCI-60 one-dose screen, 48 h (100 = growth as untreated, 0 = no growth, -100 = all killed); details: 10 µM
The panel holds about 83,000 compounds, 20% with a hit somewhere; the sample as a whole holds those more often. The source made the active and inactive calls. The calls were made as follows: active = growth percent below 10; inactive = the rest.
Endpoint Label: growth

Look over these answered cases.
Compound	Target Or System	growth
COc1cccc(-c2ccnc(/N=C(\N)Nc3ccc(S(=O)(=O)Nc4nc(C)cc(C)n4)cc3)n2)c1	A549/ATCC NSCLC	102% (inactive)
COc1ccc(-c2cc(-c3cc(C(=O)c4ccccc4)n4ccc(C)cc34)nc(N)c2C#N)cc1	A549/ATCC NSCLC	79.9% (inactive)
O=C1CCC(N2Cc3cc(CC(=O)Nc4ccc(N5CCCCC5)cc4)ccc3C2=O)C(=O)N1 (stereo unspecified)	A549/ATCC NSCLC	68.3% (inactive)
CC(=O)Nc1ccc(-n2cnc3cc(-c4ccc(O)cc4)ccc32)cc1F	A549/ATCC NSCLC	33.8% (inactive)
COc1cc(C2CC(c3ccc(C)cc3)=Nc3c(N)nc(N)nc3N2)ccc1Oc1nc(Nc2ccc(F)cc2)nc(N(C)C)n1 (stereo unspecified)	A549/ATCC NSCLC	88.1% (inactive)

Provide the reported growth of each entry below, same order.
1. COc1cc(OC(F)(F)F)ccc1C(=O)Nc1sc2c(c1C#N)CCC(=O)C2
2. CC(C)NC(=O)c1cc(-c2ccc(NC(=O)Nc3ccc(N4CCN(C)CC4)c(C(F)(F)F)c3)cc2)nc2cccnc12
3. CN1C/C(=C\c2ccc(O)cc2O)c2[o+]c3cc(O)ccc3cc2C1
4. O=C(NO)c1ccc(CN2CCN(c3nc(-c4ccccc4)c4ccccc4n3)CC2)cc1
5. O=C(c1ccccc1)n1ccc(-c2cc3cc(Br)ccc3oc2=O)n1

93.5% (inactive)
-78.9% (active)
99.5% (inactive)
1.35% (active)
33.9% (inactive)

Enter measured growth, system A549/ATCC NSCLC, for the compound shown: `CC(=O)c1ccc(Nc2nc(SCCC(C)C)nc(-c3ccc(F)cc3)c2C#N)cc1`
18.8% (inactive)

---

system: MDA-MB-468 breast; test: NCI-60 one-dose screen, 48 h (100 = growth as untreated, 0 = no growth, -100 = all killed); conditions: 10 µM
About 83,000 compounds went through this panel and 20% of them were active in at least one assay; those are over-represented in the sample as a whole.
Endpoint Label: growth (%)
One number for each entry, in %.

Look over these answered cases.
Compound	Endpoint Label	Result Value
O=C(Nc1cccc(C(F)(F)F)c1)c1cncc(C#Cc2cnc3cccnn23)c1	growth	47.8
O=C(Nc1nc2ccc([N+](=O)[O-])cc2s1)Nc1cc(Cl)ccc1I	growth	-43.5
CNC(=O)c1cccc(N2CCc3c2ccc(NC(=O)Nc2ccc(N4CCN(C)CC4)c(C(F)(F)F)c2)c3F)c1	growth	90.4
COc1ccc2ncc(C#Cc3cncc(C(=O)Nc4ccc(CN5CCN(C)CC5)c(C(F)(F)F)c4)c3)n2n1	growth	-91.1
COc1ccc(C(=O)/C=C/c2cc(C(F)(F)F)cc(C(F)(F)F)c2)cc1S(N)(=O)=O	growth	-95.2

Provide the reported growth of each entry below, same order.
1. CN1C(=O)N(C)C2SC(N/N=C/c3ccccc3F)=NC21 (stereo unspecified)
2. CCOP(=O)(OCC)O[C@H]1CCC(=O)[C@@H]2[C@H]1[C@H]1C[C@@H]3[C@@]4(C)CCCC(C)(C(=O)OC)[C@@H]4CC[C@@]23C=C1C(C)C (stereo partly specified)
3. O/N=C(\CSc1nnc(-c2c[nH]c3ccccc23)n1-c1ccccc1)c1ccc(Cl)cc1
4. COc1cc(OC(F)(F)F)ccc1C(=O)Nc1sc2c(c1C#N)CCC(=O)C2
5. O=S(=O)(Nc1ncccn1)c1ccc(-n2c(-c3ccccc3)nc(-c3ccccc3)c2-c2ccccc2)cc1
6. Cc1ccc(NCC(=O)Nn2c(COc3ccccc3)nc3ccccc3c2=O)cc1

0.576
7.96
-85.1
77.7
85.7
80.1

Provide the reported growth of each entry below, same order.
1. O=C(Cn1nc(-c2ccccc2)ccc1=O)NN1C(=O)c2ccccc2C1=O
2. Cc1cccc(-c2nc(Nc3ccccc3C(=O)O)c3ccccc3n2)c1
3. CC1(C)CC[C@]2(C(=O)Nc3ccccc3)CC[C@]3(C)C(=CC[C@@H]4[C@@]5(C)CC[C@H](N)C(C)(C)[C@@H]5CC[C@]43C)[C@H]2C1
4. Cc1ccc(/C=C(\C#N)n2nnc3c(F)cccc32)cc1
5. COc1ccccc1[C@H]1C(C(=O)c2ccc(Cl)cc2)C2(N[C@@H]1c1ccccc1)C(=O)Nc1ccc(Cl)cc12 (stereo partly specified)

[92.3, -15.1, 1.83, 37.8, -43.9]

Provide the reported growth of each entry below, same order.
1. O=C(NO)c1ccc(Cn2ccc3c(Nc4ccccc4)ncnc32)cc1
2. CC(=O)Nc1ccc(-n2cnc3cc(-c4ccc(O)cc4)ccc32)cc1F
3. O=C(Nc1nc2ccc([N+](=O)[O-])cc2s1)Nc1ccccc1I

-5.25
-12.3
-25.8

---

test system: SK-MEL-28 melanoma; test: NCI-60 one-dose screen, 48 h (100 = growth as untreated, 0 = no growth, -100 = all killed); conditions: 10 µM
The panel holds about 83,000 compounds, 20% with a hit somewhere; the sample as a whole holds those more often.
Endpoint Label: growth (%)
One number for each entry, in %.

Compound	Endpoint Label	Result Unit	Result Value
O=C(CNc1nc(-c2ccccc2)cs1)Nc1ccccc1	growth	%	-60.1
COc1cc2c3c(n(CCCNC(C)C)c(=O)c2cc1OC)-c1nc2c(cc1C3=O)OCO2	growth	%	49.2
C=CCn1c(SCC(=O)Nc2ccc(C(=O)/C=C/c3ccccc3)cc2)nnc1-c1c[nH]c2ccccc12	growth	%	68.5
COc1ccc(NC(=O)Cn2c(/C=C/c3ccc(N(C)C)cc3)nc3ccccc3c2=O)cc1	growth	%	45.6

Provide the reported growth of each entry below, same order.
1. COc1ccc(C=CC(=O)c2ccc(-n3c(C)nc4c(cnn4-c4ccccc4)c3=O)cc2)cc1
2. Cc1cc(C(F)(F)F)ccc1C(=O)Nc1sc2c(c1C#N)CCC(=O)C2

90.4
-83.9

Provide the reported growth of each entry below, same order.
1. O=C(c1ccc(O)cc1)C1[C@H](c2ccc(Br)cc2)[C@@H](c2ccccc2)NC12C(=O)Nc1ccccc12 (stereo not given in full)
2. COc1ccc2[nH]c(O)c(N=NC(=O)COc3ccc(NC(=O)Nc4ccc(Cl)c(Cl)c4)cc3)c2c1
3. C=C1CC[C@H](C(=C)C)[C@H]2C=C(C)C(=O)C3=C(C(=O)[C@@](C)(O)C3)[C@H]12
4. Cc1ccc(S(=O)(=O)c2nc(-c3ccccc3)oc2S(=O)(=O)CC(=O)N2CCCC2)cc1
5. O=C(c1ccc(Cl)cc1)C1[C@H](c2ccc(Br)cc2)[C@@H](c2ccccc2)NC12C(=O)Nc1ccccc12 (stereo not given in full)
6. CC(C)Sc1nc(NC2CC2)c(C#N)c(-c2ccccc2)n1

1. 78.5
2. -59.8
3. -89.2
4. -100
5. -32.7
6. 110

Provide the reported growth of each entry below, same order.
1. Cc1ccc(-c2cc(C(=O)N=Nc3c(O)[nH]c4ccccc34)c3ccccc3n2)cc1
2. O=C(CSc1nnc(-c2ccc3nc(-c4ccccc4)[nH]c3c2)o1)Nc1ccc(Br)cc1
3. CC(C)(C)c1ccc(NCc2cn(-c3ccc(C(=O)O)cc3)nc2-c2ccc(C#N)cc2)cc1
4. COc1ccc(C(C)=C(c2ccc(OCCCN(C)C)cc2)c2ccc(OCCCN(C)C)cc2)cc1
5. COc1ccc([C@H]2C(C(=O)c3ccc(Cl)cc3)C3(N[C@@H]2c2ccccc2)C(=O)Nc2ccc(Br)cc23)cc1 (stereo not given in full)

[59.4, 76.9, 28.1, -97.9, 18.9]

---

tested on: UACC-62 melanoma; experiment: NCI-60 one-dose screen, 48 h; settings: 10 µM
This is part of a sample that, as a whole, favours compounds with a hit. Of some 83,000 tested, about 20% had one in any assay. Activity calls are given as the source filed them. How the source made its calls: active means growth percent below 10; inactive means the rest.
Result category, one only: active, inactive

Structure Notation	Class Label
O=c1[nH]c2ccccc2cc1CSc1ccc(Nc2nccc(-c3ccc(C(F)(F)F)cc3)n2)cc1	inactive
CC(C)NC(=O)c1cc(-c2ccc(NC(=O)Nc3ccc(N4CCN(C)CC4)c(C(F)(F)F)c3)cc2)nc2cccnc12	active
O=C1Nc2ccc(F)cc2/C1=C/c1cccc(OCc2ccccc2)c1	inactive
O=C(Nc1nc2ccc([N+](=O)[O-])cc2s1)Nc1cc(Cl)ccc1I	active
COc1ccc(-c2cc(-c3cc(C(=O)c4ccc(Br)cc4)n4ccc(C)cc34)nc(N)c2C#N)cc1	inactive
O=c1cc(-c2ccccc2)oc2cc(OCCCCNCc3ccccc3)cc(O)c12	active
O=S(=O)(Nc1ncccn1)c1ccc(-n2c(-c3ccccc3)nc(-c3ccccc3)c2-c2ccccc2)cc1	inactive

Hi, do you know how `Nc1nc(-c2ccccc2)cc(-c2cc3ccccc3nc2Cl)n1` came out in this test?
inactive
